B1: DLC1 (parent)
chain: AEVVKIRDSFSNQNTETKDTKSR

Variants of: B1
Run description: protein stability index of a GFP-peptide fusion (GPS, HEK-293T) (PSI 1-6); higher = more stable;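 further: lentivirally expressed fusions sorted by FACS into six bins by GFP to DsRed ratio, PSI derived from sequencing read proportions per bin multiplied by bin number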
Experimental setup: c terminus: native
Assay metric: protein stability index
Just the number, please.

Dear colleague, please send me the reported protein stability index for T17W when you can.
3.5

Answer with reported protein stability index of R23P
5.32

Fill in reported protein stability index for this entry: I6R
3.18

Determine its reported protein stability index: D19L
2.1

Input N14G , output reported protein stability index.
2.08

Indicate its recorded protein stability index; the variant in question is V3C
2.69

Please list protein stability index recorded for the variant A1P
1.72

Answer with reported protein stability index of E16Q
3.17

Supply measured protein stability index of S22Q in your reply.
3.03

For the variant K5P , give its measured protein stability index value.
2.67

Fill in protein stability index for record R7N
3.31

Retrieve protein stability index measured for R23T and print it.
5.55

Note protein stability index for the variant shown: K5W
1.84

Provide one value: measured protein stability index of T20C
1.93

Indicate the recorded protein stability index value for this variant: K18A
1.17

Tell me protein stability index reported for V3Q
2.47

Indicate its recorded protein stability index; the variant in question is D19A
1.79

Answer with reported protein stability index of S11W
1.88

Indicate the recorded protein stability index value for this variant: R7S
2.42

Write down protein stability index measured for item R7V
3.12

// fetch protein stability index given entry S22M
4.06

Tell me protein stability index reported for R23K
5.49

State its protein stability index for this variant: D19R
1.84

Respond only with protein stability index recorded for S9N
2.22

Fill in protein stability index for record T15W
2.05

Give the reported protein stability index for this variant. Q13L
2.31

Answer with reported protein stability index of K5R
2.33

Fill in protein stability index for record I6E
3.33

Quickly give me recorded protein stability index for S11K
3.15

Quickly give me recorded protein stability index for Q13W
2.36

Let me know recorded protein stability index for F10D , thanks.
4

Please give measured protein stability index of the following entry: T15M
1.86

Please give measured protein stability index of the following entry: S11N
4.69

// Input: R23D . Output its protein stability index only.
5.6

Answer with the recorded protein stability index for the variant listed here: K21V
4.89

Using known records, supply protein stability index for N12C
1.63

Determine from records and report protein stability index for N14T
2.55

Quickly give me recorded protein stability index for N12L
3.05

Let me know recorded protein stability index for A1W , thanks.
2.76

Tell me measured protein stability index for Q13N please.
2.56

Give protein stability index for S22Y
3.36

Identify measured protein stability index associated with E16M
1.51

Consider the variant S9Y . State its measured protein stability index.
1.67

Give protein stability index for S9I
1.49

Identify the reported protein stability index for the following entry. R23G
4.84

Report protein stability index, nothing else, for this variant: D19W
1.45
